- Test system: T47D cells
- EXPERIMENT_SUMMARY: Alamar Blue cell viability assay, T47D
- Assay type: cell-based, human
- ASSAY_CONTEXT: Homo sapiens; T47D cell viability, Alamar Blue
Output yes (1) for records whose IC50 is lower than 30 µM, no (0) for records at or above 30 µM.

Some solved cases for reference:
CC(=O)N1N=C(c2c(C)nc3ccc(C)cn23)CC1c1cccc([N+](=O)[O-])c1 (stereo not drawn)	no (0)
Cc1ccc2nc(C)c(C3=NN(C(=S)Nc4cc(C(F)(F)F)cc(C(F)(F)F)c4)[C@@H](c4cccc([N+](=O)[O-])c4)C3)n2c1	no (0)

# TODO verify IC50 < 30 µM strictly for this molecule: Cc1ccc2nc(C)c(C3=NN(C(=O)CN4CCN(c5ccc(F)c(F)c5)CC4)C(c4cccc([N+](=O)[O-])c4)C3)n2c1 (stereo not drawn)
yes (1)

# TODO verify IC50 < 30 µM strictly for this molecule: CC(=O)N1CCN(CC(=O)N2N=C(c3c(C)nc4ccc(C)cn34)CC2c2cccc([N+](=O)[O-])c2)CC1 (stereo not drawn)
no (0)

* * *

Provide the recorded IC50 for the entries that follow.
- Test system: MCF-7 cells
- EXPERIMENT_SUMMARY: Alamar Blue cell viability assay, MCF-7
- Type: cell-based, human
- ASSAY_CONTEXT: MCF-7 cell viability, 72 h
Answers are plain numbers, in µM.

Here is how some molecules turned out for IC50.
Cc1ccc2nc(C)c(C3=NN(C(=S)Nc4ccccc4)C(c4cccc([N+](=O)[O-])c4)C3)n2c1 (centres unmarked) [Compound 4a]	81.4
Cc1ccc2nc(C)c(C3=NN(C(=S)NC4CCCCC4)C(c4cccc([N+](=O)[O-])c4)C3)n2c1 (centres unmarked) [Compound 4c]	46.1
Cc1ccc2nc(C)c(C3=NN(C(=O)CN4CCN(c5cccc(Cl)c5Cl)CC4)C(c4cccc([N+](=O)[O-])c4)C3)n2c1 (centres unmarked) [Compound 3f]	9.27

Fill in: IC50 on MCF-7 cells, entry Cc1ccc(NC(=S)N2N=C(c3c(C)nc4ccc(C)cn34)CC2c2cccc([N+](=O)[O-])c2)cc1 (centres unmarked) [Compound 4f]
56.9

* * *

Provide the recorded melting point for the entries that follow.

List melting point for every entry below, keeping the order given.
1. Cc1ccc2nc(C)c(C3=NN(C(=O)CN4CCN(c5ccc(Cl)cc5F)CC4)C(c4cccc([N+](=O)[O-])c4)C3)n2c1 (stereo not shown)
2. CC(=O)N1N=C(c2c(C)nc3ccc(C)cn23)CC1c1cccc([N+](=O)[O-])c1 (stereo not shown)
3. Cc1ccc2nc(C)c(C3=NN(C(=O)CN4CCN(c5ccc(F)c(F)c5)CC4)C(c4cccc([N+](=O)[O-])c4)C3)n2c1 (stereo not shown)
4. Cc1ccc2nc(C)c(C3=NN(C(=O)CN4CCN(c5ccccc5F)CC4)C(c4cccc([N+](=O)[O-])c4)C3)n2c1 (stereo not shown)

["196 to 198 °C", "166 to 168 °C", "192 to 194 °C", "160 to 162 °C"]

List melting point for every entry below, keeping the order given.
1. Cc1ccc2nc(C)c(C3=NN(C(=O)CN4CCN(C(=O)OC(C)(C)C)CC4)C(c4cccc([N+](=O)[O-])c4)C3)n2c1 (stereo not shown)
2. Cc1ccc2nc(C)c(C3=NN(C(=S)Nc4cc(C(F)(F)F)cc(C(F)(F)F)c4)[C@@H](c4cccc([N+](=O)[O-])c4)C3)n2c1
3. CC(=O)N1CCN(CC(=O)N2N=C(c3c(C)nc4ccc(C)cn34)CC2c2cccc([N+](=O)[O-])c2)CC1 (stereo not shown)

166 to 168 °C
230 to 232 °C
208 to 210 °C
